From: patent US20240247080A1

Target: T1, human GIP receptor (human, UniProt P48546 22-466)
T1 sequence (looked up): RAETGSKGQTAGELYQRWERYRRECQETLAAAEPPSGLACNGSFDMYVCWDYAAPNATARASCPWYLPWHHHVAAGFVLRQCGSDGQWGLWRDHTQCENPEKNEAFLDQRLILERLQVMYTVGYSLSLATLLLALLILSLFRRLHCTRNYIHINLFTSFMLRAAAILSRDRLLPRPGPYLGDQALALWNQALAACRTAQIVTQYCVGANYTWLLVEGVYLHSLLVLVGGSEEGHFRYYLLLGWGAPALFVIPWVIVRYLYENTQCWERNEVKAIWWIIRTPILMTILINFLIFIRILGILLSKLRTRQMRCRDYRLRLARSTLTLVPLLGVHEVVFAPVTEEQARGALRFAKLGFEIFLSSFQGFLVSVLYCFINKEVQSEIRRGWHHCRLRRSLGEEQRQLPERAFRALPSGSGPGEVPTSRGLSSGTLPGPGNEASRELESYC
Assay: cell-based or functional assay
Non-standard residues stand in square brackets, D forms with d. No end group written: not given here. Aib = CC(C)(N)C(=O)O
Sorting guide: entries reporting EC50, CreLuc assay, 100% hP beneath 2 nM go in the yes (1) pile, the rest go in the no (0) pile.

State whether 2 nM exceeds EC50, CreLuc assay, 100% hP recorded for YXEGTFTSDYSIXLEKQAQXAFVEWLIKGGPSYYVSLRHYYNWLTRQRY (Aib at 2, 13, 20; K28 side chain: C20DA-gGlu-gGlu-gGlu-gGlu-gGlu-gGlu-eLys; C-terminal NH2) [Compound 80] . no (0)

State whether 2 nM exceeds EC50, CreLuc assay, 100% hP recorded for Y[Aib]EGTFTSDYSI[Aib]LEKQAQ[Aib]AFVEWLIKGGPESPASLRHYYNWLTRQRY-NH2 (not fully specified (residue 28); also: TFA salt) [Compound 64] . no (0)

State whether 2 nM exceeds EC50, CreLuc assay, 100% hP recorded for YXEGTFTSDYSIXLEKQAQXAFVQWLIKGGPSSYVSLRHYYNWLTRQRY (Aib at 2, 13, 20; K28 side chain: C20DA-gGlu-gGlu-gGlu-gGlu-gGlu-gGlu-eLys; C-terminal NH2) [Compound 15] . no (0)
